Each record here notes measured pIC50.
# target desc: H1047R PIK3CA enzyme (Homo sapiens, UniProt P42336, H1047R)
# Sequence (P42336 whole entry H1047R): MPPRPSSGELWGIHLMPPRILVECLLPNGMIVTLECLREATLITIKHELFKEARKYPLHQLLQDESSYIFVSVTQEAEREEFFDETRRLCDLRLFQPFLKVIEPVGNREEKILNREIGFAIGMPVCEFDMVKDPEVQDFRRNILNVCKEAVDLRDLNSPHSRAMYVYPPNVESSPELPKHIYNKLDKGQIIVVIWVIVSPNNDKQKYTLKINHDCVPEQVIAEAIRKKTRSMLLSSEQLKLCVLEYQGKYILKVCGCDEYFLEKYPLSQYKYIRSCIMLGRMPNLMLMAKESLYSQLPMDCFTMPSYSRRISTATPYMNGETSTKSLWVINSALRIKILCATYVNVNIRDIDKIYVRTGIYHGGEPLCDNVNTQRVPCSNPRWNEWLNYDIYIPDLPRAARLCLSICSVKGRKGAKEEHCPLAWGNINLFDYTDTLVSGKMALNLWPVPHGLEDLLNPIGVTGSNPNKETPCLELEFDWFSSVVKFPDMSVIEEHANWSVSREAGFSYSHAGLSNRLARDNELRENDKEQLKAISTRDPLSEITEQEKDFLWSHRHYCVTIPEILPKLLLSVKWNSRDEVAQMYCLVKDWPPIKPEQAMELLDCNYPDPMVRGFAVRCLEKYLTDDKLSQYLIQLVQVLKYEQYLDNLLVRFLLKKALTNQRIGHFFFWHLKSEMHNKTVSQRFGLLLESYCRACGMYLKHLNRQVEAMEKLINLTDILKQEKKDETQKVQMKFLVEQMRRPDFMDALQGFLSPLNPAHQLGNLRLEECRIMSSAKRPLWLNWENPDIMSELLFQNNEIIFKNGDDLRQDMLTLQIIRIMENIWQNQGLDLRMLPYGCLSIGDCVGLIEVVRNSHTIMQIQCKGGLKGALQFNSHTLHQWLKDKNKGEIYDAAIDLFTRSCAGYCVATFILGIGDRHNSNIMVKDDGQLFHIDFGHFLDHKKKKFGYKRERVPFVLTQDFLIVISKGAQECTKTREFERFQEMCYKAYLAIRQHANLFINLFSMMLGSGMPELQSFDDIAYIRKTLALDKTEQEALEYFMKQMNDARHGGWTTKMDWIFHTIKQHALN
# Sequence (P27986 whole entry partner): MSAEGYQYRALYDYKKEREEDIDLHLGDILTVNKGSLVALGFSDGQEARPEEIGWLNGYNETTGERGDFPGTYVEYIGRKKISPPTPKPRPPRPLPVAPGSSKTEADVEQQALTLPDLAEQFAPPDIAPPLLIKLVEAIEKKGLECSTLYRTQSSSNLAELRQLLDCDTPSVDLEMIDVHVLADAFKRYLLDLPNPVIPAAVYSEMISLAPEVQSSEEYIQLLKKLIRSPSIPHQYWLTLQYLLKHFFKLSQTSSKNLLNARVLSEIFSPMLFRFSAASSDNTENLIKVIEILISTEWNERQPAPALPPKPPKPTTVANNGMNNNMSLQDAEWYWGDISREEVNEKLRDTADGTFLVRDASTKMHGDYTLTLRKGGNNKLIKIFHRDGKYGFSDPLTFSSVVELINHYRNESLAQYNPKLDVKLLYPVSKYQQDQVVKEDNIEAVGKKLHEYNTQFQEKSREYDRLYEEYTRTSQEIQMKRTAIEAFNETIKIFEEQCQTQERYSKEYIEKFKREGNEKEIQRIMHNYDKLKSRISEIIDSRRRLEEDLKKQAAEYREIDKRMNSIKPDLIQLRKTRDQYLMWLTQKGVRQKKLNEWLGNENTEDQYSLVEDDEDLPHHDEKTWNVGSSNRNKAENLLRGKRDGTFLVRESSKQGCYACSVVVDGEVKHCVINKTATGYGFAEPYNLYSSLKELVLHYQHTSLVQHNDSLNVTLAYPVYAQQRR
# protocol notes: ADP-Glo Biochemical PIK3CA Kinase Assay
# condition notes: ADP-Glo biochemical PIK3CA kinase assay
pIC50: −log10 of the molar value.

Cc1ccccc1Nc1ncc(C(=O)NCc2cnn(C(C)C)c2)cc1NC(=O)c1csc2ccccc12 ... 6.30 to 7.00
CNC(=O)c1cnc(Nc2ccccc2C)c(NC(=O)c2cn(C)nc2C(F)F)c1 ... 4.00 to 5.00
CNC(=O)c1cnc(Nc2ccccc2C)c(NC(=O)c2coc3cccc(Br)c23)c1 ... 4.00 to 5.00

GET /values?item= CNC(=O)c1cnc(Nc2ccccc2C)c(NC(=O)c2ccnc3c(F)cccc23)c1 &system= H1047R PIK3CA enzyme (Homo sapiens, UniProt P42336, H1047R) returns pIC50: 4.00 to 5.00

GET /values?item= Nc1cc(C(=O)NC2CS(=O)(=O)C2)cnc1N1CCOc2ccccc21 &system= H1047R PIK3CA enzyme (Homo sapiens, UniProt P42336, H1047R) returns pIC50: 5.00 to 6.00

====

# target desc: H1047R PIK3CA enzyme (Homo sapiens, UniProt P42336, H1047R)
# protocol notes: ADP-Glo Biochemical PIK3CA Kinase Assay
Each record here notes measured IC50.

Study these solved cases before continuing.
Cc1ccccc1Nc1ncc(-c2cnn(C)c2)cc1NC(=O)c1cccc(C#N)c1 ... 10 to 100 µM
Cc1ccccc1Nc1ncc(C(=O)NC2CCS(=O)(=O)C2)cc1NC(=O)c1cc(F)cc(C(F)(F)F)c1 (stereo not shown) ... 0.1 to 0.5 µM
O=C(NCc1nccs1)c1cnc(N2CCCc3ccccc32)c(NC(=O)c2cc(F)cc(C(F)(F)F)c2)c1 ... 0.5 to 1 µM
CNC(=O)c1cnc(Nc2ccccc2C)c(N(S(=O)(=O)c2ccc(F)cc2C)S(=O)(=O)c2ccc(F)cc2C)c1 ... 10 to 100 µM
Cc1ccccc1Nc1ncc(C(=O)Nc2cncnc2)cc1NC(=O)c1cc(F)cc(C(F)(F)F)c1 ... 0.5 to 1 µM
Cc1ccccc1Nc1ncc(-c2cnn(C3CCOCC3)c2)cc1NC(=O)c1cc(F)cc(C(F)(F)F)c1 ... 0.5 to 1 µM

// CNC(=O)c1cnc(Nc2ccccc2C)c(NC(=O)c2cccc3ccncc23)c1 : IC50 value = 10 to 100 µM

// C[C@@H](NC(=O)c1cnc(N2CCCOc3ccccc32)c(NC(=O)c2csc3ccccc23)c1)c1cccnc1 (racemic) : IC50 value = 1 to 10 µM

====

Each record here notes measured IC50.
# target desc: H1047R PIK3CA enzyme (Homo sapiens, UniProt P42336, H1047R)
# protocol notes: ADP-Glo Biochemical PIK3CA Kinase Assay
# condition notes: ADP-Glo biochemical PIK3CA kinase assay

Study these solved cases before continuing.
CNC(=O)c1cnc(Nc2ccccc2C)c(NC(=O)C2(c3cccc(F)c3)CC2)c1 ... 1 to 10 µM
CNC(=O)c1cnc(Nc2ccccc2C)c(NC(=O)c2cn[nH]c2-c2ccc(F)cc2)c1 ... 10 to 100 µM
Cc1ccccc1Nc1ncc(C(=O)NCC2(S(C)(=O)=O)CCC2)cc1NC(=O)c1csc2ccccc12 ... 0.5 to 1 µM

Continue with the compound presented below.
// CNC(=O)c1cnc(Nc2ccccc2C)c(NC(=O)c2cc3c(C)cccc3[nH]2)c1 : IC50 value = 10 to 100 µM

====

Each record here notes measured IC50.
# target desc: H1047R PIK3CA enzyme (Homo sapiens, UniProt P42336, H1047R)
# protocol notes: ADP-Glo Biochemical PIK3CA Kinase Assay
# condition notes: ADP-Glo biochemical PIK3CA kinase assay

Study these solved cases before continuing.
CNC(=O)c1cnc(Nc2ccccc2C)c(NC(=O)c2cc3c(Cl)cc(Cl)cc3[nH]2)c1 [I-507] ... 1 to 10 µM
CNC(=O)c1cnc(Nc2ccccc2C)c(NC(=O)c2c[nH]c3cccc(Cl)c23)c1 [I-528] ... 10 to 100 µM
CNC(=O)c1cnc(Nc2ccccc2C)c(NC(=O)c2nn(C)c(C3CC3)c2F)c1 [I-439] ... 10 to 100 µM

Continue with the compound presented below.
// Cc1ccccc1Nc1ncc(C(=O)Nc2cccnn2)cc1NC(=O)c1csc2ccccc12 [I-496] : IC50 value = 0.5 to 1 µM

====

# target desc: H1047R PIK3CA enzyme (Homo sapiens, UniProt P42336, H1047R)
# protocol notes: ADP-Glo Biochemical PIK3CA Kinase Assay
# condition notes: ADP-Glo biochemical PIK3CA kinase assay
pIC50: −log10 of the molar value.
recorded endpoint: pIC50

Study these solved cases before continuing.
CNC(=O)c1cnc(Nc2ccccc2C)c(NC(=O)C2CCCC3CCCCC32)c1 (centres unmarked) [I-464] ... 4.00 to 5.00
Cc1ccccc1Nc1ncc(C(=O)NCC2CCNC(=O)C2)cc1NC(=O)c1csc2ccccc12 (centres unmarked) [I-569] ... 6.30 to 7.00

// CNC(=O)c1cnc(Nc2ccccc2C)c(NC(=O)c2ccc3nnc(Br)n3c2)c1 [I-564] : pIC50 value = 6.00 to 6.30

// Cc1ccccc1Nc1ncc(C(=O)NC2COCC(O)C2)cc1NC(=O)c1csc2ccccc12 (centres unmarked) [I-585] : pIC50 value = 6.30 to 7.00

// CNC(=O)c1cnc(Nc2ccnc3c2ccn3C)c(NC(=O)c2csc3ccccc23)c1 [I-737] : pIC50 value = 5.00 to 6.00

// CNC(=O)c1cnc(Nc2ccccc2C)c(NC(=O)c2ccc(CO)c(F)c2)c1 [I-567] : pIC50 value = 5.00 to 6.00

====

# target desc: H1047R PIK3CA enzyme (Homo sapiens, UniProt P42336, H1047R)
# protocol notes: ADP-Glo Biochemical PIK3CA Kinase Assay
Each record here notes measured IC50.

Study these solved cases before continuing.
O=C(NCc1nccs1)c1cnc(N2CCCc3ccccc32)c(NC(=O)c2csc3ccccc23)c1 [I-181] ... 0.1 to 0.5 µM
CNC(=O)c1cnc(Nc2ccccc2C)c(NC(=O)c2cccc3cnccc23)c1 [I-237] ... 10 to 100 µM
Cc1ccccc1Nc1ncc(N)cc1NC(=O)c1cc(F)cc(C(F)(F)F)c1 [I-70] ... 1 to 10 µM

Continue with the compound presented below.
// COCCn1cc(-c2cnc(Nc3ccccc3C)c(NC(=O)c3cc(F)cc(C(F)(F)F)c3)c2)cn1 [I-148] : IC50 value = 0.5 to 1 µM

====

# target desc: H1047R PIK3CA enzyme (Homo sapiens, UniProt P42336, H1047R)
# protocol notes: ADP-Glo Biochemical PIK3CA Kinase Assay
pIC50: −log10 of the molar value.
Each record here notes measured pIC50.

CNC(=O)c1cnc(Nc2nccs2)c(NC(=O)c2cc(F)cc(C(F)(F)F)c2)c1 ... 4.00 to 5.00
CNC(=O)c1cnc(Nc2ccccc2C)c(NC(=O)CCc2cnccc2C(F)(F)F)c1 ... 4.00 to 5.00
Cc1ccccc1Nc1ncc(-c2cnn(C)c2)cc1NC(=O)c1cccc2c1cnn2C ... 4.00 to 5.00
CNC(=O)c1cnc(Nc2ccc(F)cc2)c(NC(=O)c2cc(F)cc(C(F)(F)F)c2)c1 ... 6.00 to 6.30
CNC(=O)c1cnc(Nc2ccccc2C)c(NCc2ccccc2)c1 ... 4.00 to 5.00

// Cc1ccccc1Nc1ncc(-c2ccn[nH]2)cc1NC(=O)c1cc(F)cc(C(F)(F)F)c1 : pIC50 value = 5.00 to 6.00

// Cc1ccccc1Nc1ncc(C(=O)NC2(C)CS(=O)(=O)C2)cc1NC(=O)c1csc2ccccc12 : pIC50 value = 6.30 to 7.00

// CNC(=O)c1cnc(Nc2ccccc2C)c(NC(=O)c2cc(F)cc(Br)c2)c1 : pIC50 value = 6.00 to 6.30

====

# target desc: H1047R PIK3CA enzyme (Homo sapiens, UniProt P42336, H1047R)
# protocol notes: ADP-Glo Biochemical PIK3CA Kinase Assay
pIC50: −log10 of the molar value.
Each record here notes measured pIC50.

Cc1ccccc1Nc1ncc(C(=O)NCc2ccnn2C)cc1NC(=O)c1csc2ccccc12 ... 6.30 to 7.00
Cc1ccccc1Nc1ncc(C(=O)NC2CC(F)(F)C2)cc1NC(=O)c1csc2ccccc12 ... 6.30 to 7.00
Cc1ccccc1Nc1ncc(-c2cnn(C)c2)cc1NC(=O)c1ccc(C#N)cc1 ... 4.00 to 5.00
Cc1ccc(Nc2ncc(C(=O)NC3CS(=O)(=O)C3)cc2NC(=O)c2csc3ccccc23)cc1 ... 5.00 to 6.00
CNC(=O)c1cnc(N2CCNCc3ccccc32)c(NC(=O)c2cc(F)cc(C(F)(F)F)c2)c1 ... 4.00 to 5.00
CNC(=O)c1cnc(Nc2ccccc2C)c(NC(=O)[C@@H](N)C2CCCCC2)c1 (stereo in doubt) ... 4.00 to 5.00
CCC(C(=O)Nc1cc(C(=O)NC)cnc1Nc1ccccc1C)c1ccccc1 (stereo not shown) ... 4.00 to 5.00
Cc1ccccc1Nc1ncc(-c2cnn(C)c2)cc1NC(=O)c1cc2ccccc2s1 ... 4.00 to 5.00
CNC(=O)c1cnc(Nc2ccccc2C)c(NC(=O)c2ncn3ccccc23)c1 ... 4.00 to 5.00
CNC(=O)c1cnc(Nc2cc(F)ccc2Cl)c(NC(=O)NC23C[C@H]4C[C@@H](C2)C[C@@H](C3)C4)c1 ... 4.00 to 5.00

// CNC(=O)c1cnc(Nc2ccccc2C)c(NC(=O)[C@@H](OC)c2ccccc2)c1 : pIC50 value = 4.00 to 5.00

// CNC(=O)c1ccc(-c2cnc(Nc3ccccc3C)c(NC(=O)c3cc(F)cc(C(F)(F)F)c3)c2)cc1 : pIC50 value = 5.00 to 6.00

// CNC(=O)c1cnc(Nc2ccnc(C)c2)c(NC(=O)c2cc(F)cc(C(F)(F)F)c2)c1 : pIC50 value = 4.00 to 5.00

// CNC(=O)c1cnc(Nc2cccc(F)c2Cl)c(NC(=O)c2cc(F)cc(C(F)(F)F)c2)c1 : pIC50 value = 6.30 to 7.00

Values from patent US20250090540A1
